molecular target: PKR(R510Q) (Homo sapiens, UniProt P30613, R510Q); experiment: Luminescence Biochemical Assay (Kinase Glo Plus), PKR R510Q mutant; details: without FBP, 1.54 μM compound, read-out: AC50 LUM KGP woFBP % Fold@1.54 μM mean
Sequence (P30613 whole entry R510Q): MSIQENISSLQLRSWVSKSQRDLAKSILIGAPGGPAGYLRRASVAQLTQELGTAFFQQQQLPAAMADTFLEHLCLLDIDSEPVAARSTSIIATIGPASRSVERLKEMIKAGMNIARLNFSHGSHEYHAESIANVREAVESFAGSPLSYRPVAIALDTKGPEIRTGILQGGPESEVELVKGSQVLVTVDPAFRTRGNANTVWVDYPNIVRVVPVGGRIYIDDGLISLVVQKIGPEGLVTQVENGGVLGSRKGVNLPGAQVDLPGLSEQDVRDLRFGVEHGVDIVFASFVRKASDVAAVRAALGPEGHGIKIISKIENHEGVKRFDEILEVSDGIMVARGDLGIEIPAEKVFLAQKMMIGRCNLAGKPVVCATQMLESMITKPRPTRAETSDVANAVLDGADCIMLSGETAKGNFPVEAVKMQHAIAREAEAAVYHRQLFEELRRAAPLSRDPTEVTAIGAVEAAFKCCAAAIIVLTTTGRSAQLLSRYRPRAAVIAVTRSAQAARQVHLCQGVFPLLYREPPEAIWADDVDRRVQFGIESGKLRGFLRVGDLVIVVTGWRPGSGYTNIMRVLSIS

{"Compound": "Cc1noc(C)c1S(=O)(=O)N1CC2=C(CN(C(=O)[C@H](O)c3ccccc3)C2)C1 [Example 18-44]", "activation at 1.54 µM": "75 to 250%"}
{"Compound": "O=C(NCc1cnccn1)N1CC2=C(C1)CN(S(=O)(=O)c1ccc3ncsc3c1)C2 [Example 21-30]", "activation at 1.54 µM": "75 to 250%"}
{"Compound": "O=C(C1CCOCC1)N1CC2=C(C1)CN(S(=O)(=O)c1ccc3c(c1)NCCO3)C2 [Example 7-1]", "activation at 1.54 µM": "75 to 250%"}
{"Compound": "Cc1nc(CC(=O)N2CC3=C(C2)CN(S(=O)(=O)c2ccccn2)C3)cs1 [Example 18-68]", "activation at 1.54 µM": "75 to 250%"}
{"Compound": "COc1ccc(CNC(=O)N2CC3=C(C2)CN(S(=O)(=O)c2ccc(OC(F)F)cc2)C3)cc1 [Example 21-10]", "activation at 1.54 µM": "250 to 50000%"}
{"Compound": "O=C(N1CC2=C(C1)CN(S(=O)(=O)c1ccccn1)C2)C1(O)CC1 [Example 18-65]", "activation at 1.54 µM": "75 to 250%"}
{"Compound": "O=C(NCc1ccccc1F)N1CC2=C(C1)CN(S(=O)(=O)c1ccc3ncsc3c1)C2 [Example 21-20]", "activation at 1.54 µM": "250 to 50000%"}
{"Compound": "O=C([C@H](O)c1ccccc1)N1CC2=C(C1)CN(S(=O)(=O)c1ccc(F)c(F)c1)C2 [Example 18-53]", "activation at 1.54 µM": "75 to 250%"}
{"Compound": "O=C([C@H](O)c1ccccc1)N1CC2=C(C1)CN(S(=O)(=O)c1cccnc1)C2 [Example 4-1]", "activation at 1.54 µM": "75 to 250%"}
{"Compound": "Cc1nc(CC(=O)N2CC3=C(C2)CN(S(=O)(=O)c2ccc(OC(F)F)cc2)C3)cs1 [Example 18-20]", "activation at 1.54 µM": "75 to 250%"}
{"Compound": "Cc1ccc(CC(=O)N2CC3=C(C2)CN(S(=O)(=O)c2ccccn2)C3)cn1 [Example 18-61]", "activation at 1.54 µM": "75 to 250%"}
{"Compound": "O=C(NCc1ccc(F)cc1)N1CC2=C(C1)CN(S(=O)(=O)c1ccc(C(F)(F)F)nc1)C2 [Example 21-39]", "activation at 1.54 µM": "75 to 250%"}
{"Compound": "O=C(NCc1ccc(F)cc1)N1CC2=C(C1)CN(S(=O)(=O)c1ccc3nsnc3c1)C2 [Example 20-28]", "activation at 1.54 µM": "75 to 250%"}
{"Compound": "O=C([C@H](O)c1ccccc1)N1CC2=C(C1)CN(S(=O)(=O)c1cccc(C(F)(F)F)c1)C2 [Example 18-49]", "activation at 1.54 µM": "75 to 250%"}
{"Compound": "O=C(Cc1ccccn1)N1CC2=C(C1)CN(S(=O)(=O)c1ccc(OC(F)F)cc1)C2 [Example 8-1]", "activation at 1.54 µM": "250 to 50000%"}
{"Compound": "O=C(N1CC2=C(C1)CN(S(=O)(=O)c1ccc(OC(F)F)cc1)C2)C(F)(F)c1ccccc1 [Example 18-25]", "activation at 1.54 µM": "250 to 50000%"}
